# STUDY_TARGET: HLA-A*2402 (human)
# METHOD_SUMMARY: iTopia affinity;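 note: peptide binding to HLA-A*2402 measured in iTopia kit format across eight serial peptide dilutions, ED50 derived from the resulting titration curve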
QUANTITY: ED50
State the value, then name its unit.

Memo: ALKVKYEEL [cdr2 355-363 ALKVKYEEL] , reported ED50: 10 µM

Memo: YDHVFAEKI [cdr2 173-181 YDHVFAEKI] , reported ED50: 18 µM

Memo: VEKLVPDSL [cdr2 271-279 VEKLVPDSL] , reported ED50: 8.8 µM

Memo: AVKQRGISL [cdr2 337-345 AVKQRGISL] , reported ED50: 20 µM
